Substrate: CC(C)(COP(=O)(O)OP(=O)(O)OC[C@H]1O[C@@H](n2cnc3c(N)ncnc32)[C@H](O)[C@@H]1OP(=O)(O)O)[C@@H](O)C(=O)NCCC(=O)NCCSC(=O)c1ccccc1
assay.summary: purified protein
condition.set: pH 7.5, 25 °C, 50 mM K+HEPES, 1 mM DTNB
readout: Km
The number alone won't do; follow it with the unit.

Some solved entries appear below for comparison.
YdiI (Escherichia coli K-12; S64A) (protein) MIWKRKITLEALNAMGEGNMVGFLDIRFEHIGDDTLEATMPVDSRTKQPFGLLHGGASVVLAEAIGSVAGYLCTEGEQKVVGLEINANHVRSAREGRVRGVCKPLHLGSRHQVWQIEIFDEKGRLCCSSRLTTAIL :: 11.9 ± 0.9 µM
YdiI (Escherichia coli K-12; Q48N) (protein) MIWKRKITLEALNAMGEGNMVGFLDIRFEHIGDDTLEATMPVDSRTKNPFGLLHGGASVVLAESIGSVAGYLCTEGEQKVVGLEINANHVRSAREGRVRGVCKPLHLGSRHQVWQIEIFDEKGRLCCSSRLTTAIL :: 12.6 ± 0.8 µM
YdiI (Escherichia coli K-12; R91A) (protein) MIWKRKITLEALNAMGEGNMVGFLDIRFEHIGDDTLEATMPVDSRTKQPFGLLHGGASVVLAESIGSVAGYLCTEGEQKVVGLEINANHVASAREGRVRGVCKPLHLGSRHQVWQIEIFDEKGRLCCSSRLTTAIL :: 23 ± 3 µM

In: Please report the recorded Km for YdiI (Escherichia coli K-12; H89A) (protein) MIWKRKITLEALNAMGEGNMVGFLDIRFEHIGDDTLEATMPVDSRTKQPFGLLHGGASVVLAESIGSVAGYLCTEGEQKVVGLEINANAVRSAREGRVRGVCKPLHLGSRHQVWQIEIFDEKGRLCCSSRLTTAIL .
Out: 180 ± 10 µM

In: Please report the recorded Km for YdiI (Escherichia coli K-12; H54F) (protein) MIWKRKITLEALNAMGEGNMVGFLDIRFEHIGDDTLEATMPVDSRTKQPFGLLFGGASVVLAESIGSVAGYLCTEGEQKVVGLEINANHVRSAREGRVRGVCKPLHLGSRHQVWQIEIFDEKGRLCCSSRLTTAIL .
Out: 16.8 ± 0.9 µM
